- SYSTEM UNDER TEST: T1, human cMET (ELISA antigen) (human, UniProt P08581 25-932, limits assumed)
- T1 construct: also called hMET
- T1 sequence (P08581 25-932 limits assumed): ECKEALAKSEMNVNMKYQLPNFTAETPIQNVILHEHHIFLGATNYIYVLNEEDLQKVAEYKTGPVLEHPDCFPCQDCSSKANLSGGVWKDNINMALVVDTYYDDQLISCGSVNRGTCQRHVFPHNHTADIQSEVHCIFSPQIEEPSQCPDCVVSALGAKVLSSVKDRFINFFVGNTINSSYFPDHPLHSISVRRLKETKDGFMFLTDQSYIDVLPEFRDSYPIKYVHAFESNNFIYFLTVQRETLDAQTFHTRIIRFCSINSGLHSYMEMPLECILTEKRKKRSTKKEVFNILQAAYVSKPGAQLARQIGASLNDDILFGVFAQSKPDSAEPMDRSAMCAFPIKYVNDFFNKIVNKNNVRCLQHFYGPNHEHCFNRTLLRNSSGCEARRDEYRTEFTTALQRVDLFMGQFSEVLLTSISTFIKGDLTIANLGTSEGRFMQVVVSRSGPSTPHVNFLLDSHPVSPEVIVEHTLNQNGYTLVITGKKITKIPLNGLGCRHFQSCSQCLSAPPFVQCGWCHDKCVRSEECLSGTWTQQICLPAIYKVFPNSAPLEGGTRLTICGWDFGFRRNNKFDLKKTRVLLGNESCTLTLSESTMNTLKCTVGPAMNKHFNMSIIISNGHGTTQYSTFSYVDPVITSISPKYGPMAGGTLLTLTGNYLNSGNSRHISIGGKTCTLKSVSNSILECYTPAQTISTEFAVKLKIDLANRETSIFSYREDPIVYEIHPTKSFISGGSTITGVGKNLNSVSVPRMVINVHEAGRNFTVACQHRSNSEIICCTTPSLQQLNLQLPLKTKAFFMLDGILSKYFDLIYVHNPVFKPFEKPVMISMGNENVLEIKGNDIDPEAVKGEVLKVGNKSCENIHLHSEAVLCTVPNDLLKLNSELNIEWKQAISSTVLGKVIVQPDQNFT
- TEST DETAILS: ELISA on human cMET, relative to parental P3D12
A collection of binders and their measured ELISA hMET vs parental
State just the number; it will be interpreted in fold vs parental.

Request: Name the recorded ELISA hMET vs parental for G2vka (humanized P3D12, VH-ven + VL-abb/sdr) (antibody, V domains shown, Humanized and isotype switched version of P3D12) VH: QVQLVQSGAEVAKPGASVKMSCKASGYTFTSYWMHWVKQAPGQGLDWIGYIKPSTDNTEYNQKFKDKATLTADKSTSTAYMQLSSLRSEDTAVYYCARSYGNYPLMDYWGQGTTVTVSS VL: QIVLTQSPATLSLSPGERATLSCRASQSVTSNYLYWYQQKPGSSPRLLIYSTSNLASGVPARFSGSGSGTDYTLTISRLEPEDFASYFCHQWSSYPPTFGSGTKLEIKR .
Response: 0.9

// below: ELISA hMET vs parental requested for another binder
Request: Name the recorded ELISA hMET vs parental for G2vkv (humanized P3D12, VH-ven + VL-ven) (antibody, V domains shown, Humanized and isotype switched version of P3D12) VH: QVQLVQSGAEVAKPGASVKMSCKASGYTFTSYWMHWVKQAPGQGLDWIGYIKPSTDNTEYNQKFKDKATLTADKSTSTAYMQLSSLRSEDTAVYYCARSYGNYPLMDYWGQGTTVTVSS VL: QIVLTQSPATMSASPGERVTLSCSASSSVTSNYLYWYQQKPGSSPRLWIYSTSNLASGVPARFSGSGSGTSYTLTISRMEPEDAASYFCHQWSSYPPTFGSGTKLEIKR .
Response: 1.6
